From: ChEMBL document CHEMBL1142566

inhibition zone (IZ): recorded values
tested on: Staphylococcus aureus; assay: Antimicrobial activity against Staphylococcus aureus ATCC 25923 after 24 hrs by disk diffusion assay; type: functional

compound	experimental system	units symbol	relation symbol	inhibition zone (IZ)
O=C(O)[C@H]1/C(=C/CO)O[C@@H]2CC(=O)N21	Staphylococcus aureus	mm	>	16
CC(=O)Oc1cc(OC(C)=O)c2ccc(=O)oc2c1	Staphylococcus aureus	mm	=	7
CC1(C)C=Cc2c(c3c(c4ccc(=O)oc24)OC(C)(C)C=C3)O1	Staphylococcus aureus	mm	=	11
COc1cc2c(c3oc(=O)ccc13)[C@H](OC(=O)c1ccccc1)[C@@H](Br)C(C)(C)O2 (racemic)	Staphylococcus aureus	mm	=	7
CCN[C@@H]1C[C@H](N)[C@@H](O[C@H]2OC(CN)=CC[C@H]2N)[C@H](O)[C@H]1O[C@H]1OC[C@](C)(O)[C@H](NC)[C@H]1O	Staphylococcus aureus	mm	>	16
COc1cc(OC)c2ccc(=O)oc2c1	Staphylococcus aureus	mm	=	7
CC1(C)Oc2ccc3ccc(=O)oc3c2[C@H](OC(=O)c2ccccc2)[C@H]1Br	Staphylococcus aureus	mm	=	7
COc1cc2c(c3oc(=O)ccc13)C=CC(C)(C)O2	Staphylococcus aureus	mm	=	7
COc1cc2oc(=O)ccc2c2c1C=CC(C)(C)O2	Staphylococcus aureus	mm	=	7
COc1cc2c(c3oc(=O)ccc13)[C@H](OC(C)=O)[C@@H](Br)C(C)(C)O2 (racemic)	Staphylococcus aureus	mm	=	7
CC1(C)S[C@@H]2[C@H](NC(=O)[C@H](N)c3ccc(O)cc3)C(=O)N2[C@H]1C(=O)O	Staphylococcus aureus	mm	>	16
O=c1ccc2c(O)cc(O)cc2o1	Staphylococcus aureus	mm	=	7
CC(=O)O[C@H]1c2c(ccc3ccc(=O)oc23)OC(C)(C)[C@@H]1Br	Staphylococcus aureus	mm	=	11
CC(=O)Oc1cc2c(c3oc(=O)ccc13)C=CC(C)(C)O2	Staphylococcus aureus	mm	=	7
COc1cc2c(c3oc(=O)ccc13)C(OC(C)=O)CC(C)(C)O2 (racemic)	Staphylococcus aureus	mm	=	11
COc1cc2c(c3oc(=O)ccc13)[C@H](O)[C@@H](Br)C(C)(C)O2 (racemic)	Staphylococcus aureus	mm	=	7
CC(=O)Oc1cc2oc(=O)ccc2c2c1C=CC(C)(C)O2	Staphylococcus aureus	mm	=	7
